study system: Epidermal growth factor receptor (Homo sapiens)
Response field label takes satisfied when IC50 is strictly below 40 µM and not satisfied in all other cases.

O=c1c2c(-c3ccccc3)c3c(nc2nc2[nH]nc(S)n12)-c1ccccc1CC3 : not satisfied
COc1ccccc1Nc1ccnc(Nc2ccccc2OC)n1 : not satisfied
COc1cccc(Nc2ccnc(Nc3cccc(OC)c3)n2)c1 : satisfied
CN(C)c1nc(N/N=C/c2cc(Br)c(O)c(Br)c2O)nc(Nc2ccc(F)cc2)n1 : satisfied
Cn1c2ccccc2n2c(=S)[nH]nc12 : not satisfied

For the next question, use this compound.
stdin: Threshold test, IC50 < 40 µM: `COc1ccc2c3oc(=O)cc(O)c3c(=O)n(C)c2c1`
stdout: not satisfied

---

Tested on: NCI-H1975
measurement description: Antiproliferative activity against human NCI-H1975 cells over-expressing EGFR mutant gene after 72 hrs by SRB assay
Format: functional, cell-based
condition label: NCI-H1975, 72 h
attribute measured: IC50

Please review the following examples before continuing.
CCOC(=O)c1ccc(NC(=O)CSc2nnc(CNc3ccc(OC)cc3)n2-c2ccccc2)cc1 : > 100 µM
O=C(Nc1cccc(Br)c1)c1c(O)c2ccccc2[nH]c1=O : > 100 µM

stdin: What measured IC50 goes with `CNc1nc(N/N=C/c2ccc(O)cc2)nc(Nc2ccccc2)n1` ?
stdout: > 100 µM

stdin: What measured IC50 goes with `Cn1cc(NC(=O)/C=N/O)c(=O)n1-c1ccccc1` ?
stdout: > 100 µM

stdin: What measured IC50 goes with `CC(=O)Nc1ccc(S(=O)(=O)Nc2nc3ccccc3nc2Nc2ccc(C(=O)O)cc2)cc1` ?
stdout: > 100 µM

stdin: What measured IC50 goes with `Cn1c2ccccc2n2c(=S)[nH]nc12` ?
stdout: > 100 µM

stdin: What measured IC50 goes with `CNc1nc(N/N=C\c2ccc(OC)cc2)nc(Nc2ccccc2)n1` ?
stdout: > 100 µM

stdin: What measured IC50 goes with `CCc1ccc(C(=O)NNc2ccc(Cl)cc2C)cc1` ?
stdout: > 100 µM

stdin: What measured IC50 goes with `COc1ccc(Nc2nc(Cl)nc(NCc3ccco3)n2)cc1` ?
stdout: > 100 µM

stdin: What measured IC50 goes with `O=C(NNC(=O)c1ncc(Cc2ccsc2)s1)Nc1ccccc1` ?
stdout: > 100 µM

---

study system: Epidermal growth factor receptor (Homo sapiens, UniProt P00533, L858R/T790M)
Sequence (P00533 25-1210 T790M/L858R limits assumed): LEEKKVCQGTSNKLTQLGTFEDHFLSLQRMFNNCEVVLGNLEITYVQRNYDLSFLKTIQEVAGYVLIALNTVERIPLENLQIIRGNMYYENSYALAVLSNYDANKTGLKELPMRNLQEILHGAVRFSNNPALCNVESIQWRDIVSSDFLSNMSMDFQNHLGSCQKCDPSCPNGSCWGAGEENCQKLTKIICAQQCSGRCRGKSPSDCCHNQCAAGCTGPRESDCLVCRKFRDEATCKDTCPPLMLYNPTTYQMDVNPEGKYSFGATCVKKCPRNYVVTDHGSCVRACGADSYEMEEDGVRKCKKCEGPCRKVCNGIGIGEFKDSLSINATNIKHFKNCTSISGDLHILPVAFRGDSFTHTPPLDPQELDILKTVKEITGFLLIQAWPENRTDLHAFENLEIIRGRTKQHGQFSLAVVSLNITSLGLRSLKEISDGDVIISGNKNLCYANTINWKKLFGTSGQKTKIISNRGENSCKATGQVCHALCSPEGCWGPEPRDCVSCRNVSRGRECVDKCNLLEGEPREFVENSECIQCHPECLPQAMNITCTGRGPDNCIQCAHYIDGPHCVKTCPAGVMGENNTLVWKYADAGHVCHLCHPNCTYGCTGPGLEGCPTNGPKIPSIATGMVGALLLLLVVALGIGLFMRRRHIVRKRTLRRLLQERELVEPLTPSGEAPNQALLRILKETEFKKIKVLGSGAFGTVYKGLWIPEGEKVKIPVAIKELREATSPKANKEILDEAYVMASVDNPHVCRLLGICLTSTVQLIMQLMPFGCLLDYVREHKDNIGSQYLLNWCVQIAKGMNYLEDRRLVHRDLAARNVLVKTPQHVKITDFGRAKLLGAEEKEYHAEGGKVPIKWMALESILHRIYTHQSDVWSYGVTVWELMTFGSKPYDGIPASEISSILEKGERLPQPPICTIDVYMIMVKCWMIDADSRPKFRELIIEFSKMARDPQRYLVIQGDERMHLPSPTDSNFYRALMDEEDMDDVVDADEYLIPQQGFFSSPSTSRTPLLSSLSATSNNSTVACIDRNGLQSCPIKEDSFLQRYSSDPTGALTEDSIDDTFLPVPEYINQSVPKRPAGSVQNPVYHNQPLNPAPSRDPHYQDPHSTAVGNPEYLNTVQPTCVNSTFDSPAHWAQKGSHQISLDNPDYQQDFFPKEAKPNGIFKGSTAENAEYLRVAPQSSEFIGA
measurement description: Inhibition of EGFR T790M/L858R mutant expressed using baculovirus expression system by ELISA
pIC50: −log10 of the molar value.
Tick t if pIC50 is 5 or greater. Tick f if pIC50 is less than 5.

COc1nc(NCCN2CCOCC2)nc(Nc2ccc(Cl)cc2)n1 : t
COc1cccc(Nc2ccnc(Nc3cccc(OC)c3)n2)c1 : f
Cc1ccc(-n2c(SCC(=O)Nc3ccccc3Cl)nc3sc(C)c(C)c3c2=O)cc1 : f
O=C(Nc1cccc(Br)c1)c1c(O)c2ccccc2[nH]c1=O : f

For the next question, use this compound.
stdin: Check this compound for pIC50 at or above 5: `COc1cccc2c1C(=O)c1c(O)ccc(O)c1C2=O`
stdout: f

---

List of pIC50 values.
study system: Epidermal growth factor receptor (Homo sapiens, UniProt P00533, L858R/T790M)
measurement description: Inhibition of EGFR T790M/L858R mutant expressed using baculovirus expression system by ELISA
Please express pIC50 as -log10 of the molar concentration.

Please review the following examples before continuing.
C=CCn1c(N)c(C(=O)N/N=C/c2cccs2)sc1=S : 4.18
CC(=O)Nc1ccc(S(=O)(=O)Nc2nc3ccccc3nc2Nc2ccc(C(=O)O)cc2)cc1 : 4.63
CN(C)c1nc(N/N=C/c2cc(Br)c(O)c(Br)c2O)nc(Nc2ccc(F)cc2)n1 : 5.19
COc1ccc(Nc2nc(Cl)nc(NCc3ccco3)n2)cc1 : 4.68
Cn1c2ccccc2n2c(=S)[nH]nc12 : 4.66

stdin: Hi! What's the reported pIC50 for `COc1ccc2c3oc(=O)cc(O)c3c(=O)n(C)c2c1` on Epidermal growth factor receptor (Homo sapiens, UniProt P00533, L858R/T790M)?
stdout: 4.19

stdin: Hi! What's the reported pIC50 for `CNc1nc(N/N=C/c2ccc(O)cc2)nc(Nc2ccccc2)n1` on Epidermal growth factor receptor (Homo sapiens, UniProt P00533, L858R/T790M)?
stdout: 4.51

---

List of pIC50 values.
study system: Epidermal growth factor receptor (Homo sapiens, UniProt P00533, L858R/T790M)
measurement description: Inhibition of EGFR T790M/L858R mutant expressed using baculovirus expression system by ELISA
Please express pIC50 as -log10 of the molar concentration.

Cn1cc(NC(=O)/C=N/O)c(=O)n1-c1ccccc1 : 5.05
CCc1ccc(C(=O)NNc2ccc(Cl)cc2C)cc1 : 4.18

stdin: What measured pIC50 goes with `CNc1nc(N/N=C\c2ccc(OC)cc2)nc(Nc2ccccc2)n1` ?
stdout: 4.51

stdin: What measured pIC50 goes with `Cc1c(Cc2ccccc2)sc(NCC(=O)COc2ccc3ccccc3c2)c1C(N)=O` ?
stdout: 4.61

stdin: What measured pIC50 goes with `O=C(NNC(=O)c1ncc(Cc2ccsc2)s1)Nc1ccccc1` ?
stdout: 4.39

---

study system: Epidermal growth factor receptor (Homo sapiens, UniProt P00533)
Sequence (P00533 whole entry): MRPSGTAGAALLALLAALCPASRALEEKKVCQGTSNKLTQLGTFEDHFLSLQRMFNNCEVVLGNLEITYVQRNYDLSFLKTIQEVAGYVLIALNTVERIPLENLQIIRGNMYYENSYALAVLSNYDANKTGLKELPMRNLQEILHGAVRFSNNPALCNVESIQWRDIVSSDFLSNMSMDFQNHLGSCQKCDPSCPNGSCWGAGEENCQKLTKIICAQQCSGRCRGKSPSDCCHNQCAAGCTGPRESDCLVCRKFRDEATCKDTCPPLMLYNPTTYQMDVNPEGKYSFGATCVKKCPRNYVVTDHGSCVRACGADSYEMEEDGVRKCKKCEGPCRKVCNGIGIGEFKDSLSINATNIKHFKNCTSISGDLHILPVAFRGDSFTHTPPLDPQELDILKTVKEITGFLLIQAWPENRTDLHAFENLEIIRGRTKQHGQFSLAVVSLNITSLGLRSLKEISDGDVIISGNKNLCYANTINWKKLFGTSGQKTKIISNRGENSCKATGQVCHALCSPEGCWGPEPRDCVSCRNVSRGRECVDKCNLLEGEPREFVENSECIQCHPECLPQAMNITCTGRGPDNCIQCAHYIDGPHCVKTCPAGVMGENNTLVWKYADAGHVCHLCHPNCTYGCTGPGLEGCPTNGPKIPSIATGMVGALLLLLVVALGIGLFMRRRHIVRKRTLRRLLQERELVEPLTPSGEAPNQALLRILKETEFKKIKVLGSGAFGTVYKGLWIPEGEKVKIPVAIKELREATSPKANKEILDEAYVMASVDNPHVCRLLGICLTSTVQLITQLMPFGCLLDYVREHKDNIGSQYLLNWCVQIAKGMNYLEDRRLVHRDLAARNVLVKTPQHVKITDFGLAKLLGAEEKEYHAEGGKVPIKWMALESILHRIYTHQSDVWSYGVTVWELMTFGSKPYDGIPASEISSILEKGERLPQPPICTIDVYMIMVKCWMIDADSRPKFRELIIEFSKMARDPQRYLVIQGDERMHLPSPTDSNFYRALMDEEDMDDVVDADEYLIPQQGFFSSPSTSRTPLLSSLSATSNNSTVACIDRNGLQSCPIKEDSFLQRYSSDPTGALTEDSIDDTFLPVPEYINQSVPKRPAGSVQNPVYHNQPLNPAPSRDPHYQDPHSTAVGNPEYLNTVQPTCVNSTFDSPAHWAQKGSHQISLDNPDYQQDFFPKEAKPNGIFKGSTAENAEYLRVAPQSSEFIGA
List of IC50 values.

Cc1ccc(-n2c(SCC(=O)Nc3ccccc3Cl)nc3sc(C)c(C)c3c2=O)cc1 : 81.6 µM
CCOC(=O)c1ccc(NC(=O)CSc2nnc(CNc3ccc(OC)cc3)n2-c2ccccc2)cc1 : 92.4 µM
O=C(NNC(=O)c1ncc(Cc2ccsc2)s1)Nc1ccccc1 : > 100 µM
O=C(Nc1cccc(Br)c1)c1c(O)c2ccccc2[nH]c1=O : > 100 µM
COc1cccc2c1C(=O)c1c(O)ccc(O)c1C2=O : 4.3 µM
COc1nc(NCCN2CCOCC2)nc(Nc2ccc(Cl)cc2)n1 : > 100 µM

Read the next record carefully.
stdin: What measured IC50 goes with `CCc1ccc(C(=O)NNc2ccc(Cl)cc2C)cc1` ?
stdout: > 100 µM

---

Tested on: NCI-H1975
measurement description: Antiproliferative activity against human NCI-H1975 cells over-expressing EGFR mutant gene after 72 hrs by SRB assay
Format: functional, cell-based
condition label: NCI-H1975, 72 h
attribute measured: IC50 (µM)
Dear colleague, please return just the value in µM, with no unit written.

stdin: What measured IC50 goes with `Cc1c(Cc2ccccc2)sc(NCC(=O)COc2ccc3ccccc3c2)c1C(N)=O` ?
stdout: 51.7

stdin: What measured IC50 goes with `COc1cccc2c1C(=O)c1c(O)ccc(O)c1C2=O` ?
stdout: 89.4

stdin: What measured IC50 goes with `COc1ccccc1Nc1ccnc(Nc2ccccc2OC)n1` ?
stdout: 38.2

stdin: What measured IC50 goes with `Cc1ccc(-n2c(SCC(=O)Nc3ccccc3Cl)nc3sc(C)c(C)c3c2=O)cc1` ?
stdout: 53.7

stdin: What measured IC50 goes with `CN(C)c1nc(N/N=C/c2cc(Br)c(O)c(Br)c2O)nc(Nc2ccc(F)cc2)n1` ?
stdout: 10.5

stdin: What measured IC50 goes with C=CC(=O)Nc1ccc2ncnc(Nc3ccc(OCc4cccc(F)c4)c(Cl)c3)c2c1 [ALLITINIB] ?
stdout: 0.7

stdin: What measured IC50 goes with `COc1cccc(Nc2ccnc(Nc3cccc(OC)c3)n2)c1` ?
stdout: 4.1
